Target: Bifunctional epoxide hydrolase 2 (Homo sapiens, UniProt P34913)
Experiment: Inhibition of human soluble epoxide hydrolase
# label = Met if IC50 < 30 nM else Not met

// below: answered compounds
INSERT INTO assay_data (structure, cat) VALUES
  ('CC(=O)N1CCC(NC(=O)NC23CC4CC(F)(CC(F)(C4)C2)C3)CC1', 'Not met'),
  ('CC(=O)N1CCC(NC(=O)NC2CCCCC2)CC1', 'Met'),
  ('CC(=O)N1CCC(NC(=O)NC23CC4(F)CC(F)(CC(F)(C4)C2)C3)CC1', 'Not met'),
  ('CC(=O)N1CCC(NC(=O)NC2CCCCCC2)CC1', 'Met'),
  ('O=C(NC1CCCCC1)NC1CCN(C(=O)c2ccccn2)CC1', 'Met');

# evaluate next
Decide: IC50 of CS(=O)(=O)N1CCC(NC(=O)NC23CC4CC(CC(C4)C2)C3)CC1 strictly below 30 nM?
Met

###

Target: Voltage-gated inwardly rectifying potassium channel KCNH2 (Homo sapiens, UniProt Q12809)
Sequence (Q12809 whole entry): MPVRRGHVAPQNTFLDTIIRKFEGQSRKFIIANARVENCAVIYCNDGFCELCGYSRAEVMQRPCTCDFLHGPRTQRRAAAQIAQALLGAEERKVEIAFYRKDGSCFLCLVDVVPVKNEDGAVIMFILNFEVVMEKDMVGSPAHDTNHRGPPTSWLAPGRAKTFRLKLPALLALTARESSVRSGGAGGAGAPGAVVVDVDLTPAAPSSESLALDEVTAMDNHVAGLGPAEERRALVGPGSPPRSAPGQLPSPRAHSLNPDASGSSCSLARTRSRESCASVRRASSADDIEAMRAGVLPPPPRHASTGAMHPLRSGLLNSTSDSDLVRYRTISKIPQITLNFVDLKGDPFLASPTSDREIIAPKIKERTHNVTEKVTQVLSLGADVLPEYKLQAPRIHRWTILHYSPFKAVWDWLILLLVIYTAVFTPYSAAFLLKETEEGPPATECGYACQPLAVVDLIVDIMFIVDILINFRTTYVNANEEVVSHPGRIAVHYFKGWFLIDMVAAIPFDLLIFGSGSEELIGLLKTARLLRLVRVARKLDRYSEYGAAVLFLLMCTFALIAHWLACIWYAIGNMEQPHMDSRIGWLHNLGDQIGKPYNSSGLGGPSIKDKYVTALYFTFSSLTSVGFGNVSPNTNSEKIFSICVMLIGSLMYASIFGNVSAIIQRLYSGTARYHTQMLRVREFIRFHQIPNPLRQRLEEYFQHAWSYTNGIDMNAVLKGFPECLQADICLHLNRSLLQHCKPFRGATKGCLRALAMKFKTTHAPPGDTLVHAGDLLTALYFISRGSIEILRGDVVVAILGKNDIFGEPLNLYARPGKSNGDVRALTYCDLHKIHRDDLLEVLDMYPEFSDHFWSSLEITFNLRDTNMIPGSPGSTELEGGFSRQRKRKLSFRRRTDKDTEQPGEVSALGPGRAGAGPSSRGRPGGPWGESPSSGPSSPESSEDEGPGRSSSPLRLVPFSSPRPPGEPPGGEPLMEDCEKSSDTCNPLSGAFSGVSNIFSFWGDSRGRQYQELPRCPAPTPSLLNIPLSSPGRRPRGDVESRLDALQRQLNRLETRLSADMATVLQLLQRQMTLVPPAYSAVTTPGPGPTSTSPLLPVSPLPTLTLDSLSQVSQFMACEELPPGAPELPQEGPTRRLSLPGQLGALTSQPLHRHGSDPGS
Assay: Inhibition of human ERG by patch clamp analysis
metric: inhibition (INH) (%)
The reply should be a number in %, with the unit left off.

Recorded results for 4 compounds are shown here.
INSERT INTO results (compound, experimental_result) VALUES
  ('O=C(NC1CCCCC1)NC1CCN(C(=O)c2ccccn2)CC1', 3.4),
  ('CC(=O)N1CCC(NC(=O)Nc2cccc(C(F)(F)F)c2)CC1', 10),
  ('CC(C)S(=O)(=O)N1CCC(NC(=O)Nc2ccc(OC(F)(F)F)cc2)CC1', 11),
  ('CC(=O)N1CCC(NC(=O)NC2CCC(C)(C)CC2)CC1', 0.8);

// recorded inhibition (INH) for CS(=O)(=O)N1CCC(NC(=O)NC23CC4CC(CC(C4)C2)C3)CC1 : -2.8

For this compound ( CC(=O)N1CCC(NC(=O)NC2CCC(C(C)(C)C)CC2)CC1 (stereo not given) ), measured inhibition (INH) is 7

Looking up CC(=O)N1CCC(NC(=O)NC2CCCCCC2)CC1 , I found its inhibition (INH) recorded as 9

According to the records, this compound O=C(Nc1ccc(OC(F)(F)F)cc1)NC1CCN(C(=O)c2cccnc2)CC1 displays inhibition (INH) of 57

// inhibition (INH) value for CC(C)S(=O)(=O)N1CCC(NC(=O)Nc2ccc(C(F)(F)F)cc2)CC1 : 13

###

Biological target: Bifunctional epoxide hydrolase 2 (Homo sapiens, UniProt P34913)
Sequence (P34913 whole entry): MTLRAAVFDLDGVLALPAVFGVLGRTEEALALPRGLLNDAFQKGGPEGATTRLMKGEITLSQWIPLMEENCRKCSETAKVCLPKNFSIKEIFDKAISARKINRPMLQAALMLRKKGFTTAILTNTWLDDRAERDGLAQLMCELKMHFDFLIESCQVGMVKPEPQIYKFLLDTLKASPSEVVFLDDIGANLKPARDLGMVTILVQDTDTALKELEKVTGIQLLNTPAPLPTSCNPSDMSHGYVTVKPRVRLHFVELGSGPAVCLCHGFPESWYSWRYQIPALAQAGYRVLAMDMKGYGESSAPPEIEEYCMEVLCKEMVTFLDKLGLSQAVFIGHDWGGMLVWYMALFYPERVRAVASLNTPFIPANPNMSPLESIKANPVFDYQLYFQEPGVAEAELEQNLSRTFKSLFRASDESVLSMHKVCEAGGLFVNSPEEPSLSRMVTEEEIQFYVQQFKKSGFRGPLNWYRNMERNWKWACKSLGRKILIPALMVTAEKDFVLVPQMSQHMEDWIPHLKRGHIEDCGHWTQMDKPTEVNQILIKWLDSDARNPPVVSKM
Experiment: Inhibition of human soluble epoxide hydrolase
Below, each entry is listed with its recorded log10 IC50.
Base-10 log of IC50, unit nM.

Example entries and their recorded answers appear below.
INSERT INTO measurements (compound, experimental_result) VALUES
  ('CC(=O)N1CCC(NC(=O)NC2CCC(C(C)(C)C)CC2)CC1 (stereo not given)', 1.11),
  ('CC(=O)N1CCC(NC(=O)NC2CC3(C)CCC2CC3)CC1 (stereo not given)', 1.40),
  ('CC(=O)N1CCC(NC(=O)NC2CCC(F)(F)CC2)CC1', 2.27),
  ('CC(=O)N1CCC(NC(=O)NC2C3CCC2CC3)CC1 (stereo not given)', 1.15);

Summary: CC(=O)N1CCC(NC(=O)NC2CCC(C)(C)CC2)CC1 , Bifunctional epoxide hydrolase 2 (Homo sapiens, UniProt P34913), log10 IC50 = 0.78
